Source: PubChem BioAssay (NCI)

# Test system: SNB-75 CNS
# TEST_DESCRIPTION: NCI-60 one-dose screen, 48 h (100 = growth as untreated, 0 = no growth, -100 = all killed)
# CONDITION_INFO: 10 µM unless noted
About 83,000 compounds went through this panel and 20% of them were active in at least one assay; those are over-represented in the sample as a whole.
REPORTED_ENDPOINT: growth (%)

[[record]]
molecule = "COc1ccc(Nc2nnc(-c3c[nH]c4ccccc34)o2)cc1"
test_value = 78.8

[[record]]
molecule = "COc1cc(/C=C/C(=O)c2cnn(-c3cc(=O)[nH]c4ccc(C)cc34)c2C)cc(OC)c1OC"
test_value = 45.1

[[record]]
molecule = "Clc1ccc(-c2nc3ccc(-c4nnc(SCc5ccccc5)o4)cc3[nH]2)cc1"
test_value = 40.4

[[record]]
molecule = "C=CCn1c(O)c(N=Nc2nc(-c3cc4ccccc4oc3=O)cs2)c2ccccc21"
test_value = -25

[[record]]
molecule = "N#CC1=C(c2ccco2)Nc2c(c(-c3ccccc3)nn2-c2ccccc2)C12C(=O)Nc1ccc(Br)cc12 (centres undefined)"
test_value = -8.95

[[record]]
molecule = "Cc1nn(-c2ccccc2)c2nc(C)n(C(=O)N/N=C/c3ccccc3)c(=O)c12"
test_value = 62.3

[[record]]
molecule = "C=CCSc1nnc(-c2ccc(-c3nc4ccc(Cl)cc4[nH]3)cc2)o1"
test_value = 45.9

[[record]]
molecule = "Nc1nn2c(-c3cc4cc(Br)ccc4oc3=O)ccnc2c1N=Nc1ccc(S(N)(=O)=O)cc1"
test_value = 116

[[record]]
molecule = "CC1=NN(C2=NC(=O)C(CC(=O)Nc3ccccc3C(F)(F)F)S2)C(c2ccc(N(C)C)cc2)C1 (centres undefined)"
test_value = 54.9

